# Lookup of reported IC50 at 72 h keyed by entry
- protocol-text: Cytotoxicity assay, resazurin
- Type: cell-based
- cond: human, read-out: MRC-5 IC50
Quick reminder: number only, in µg/mL, skip the unit.

C=C1CC[C@@H]2C(C)(C)CCC[C@@]2(C)[C@@H]1CC/C(C)=C/Cn1c[n+](C)c2ncnc(N)c21 :: 6.7

Now examine the next entry.
Given item C/C(=C\C[n+]1cn(C)c2ncnc(N)c21)CCCC(C)CCCC(C)CCCC(C)C (centres unmarked) , the value recorded as its IC50 at 72 h is 0.75

----------
Recorded measurements of IC50, one per entry
- Tested on: T. cruzi Tulahuen CL2 strain (nifurtimox-sensitive)
- protocol-text: Antitrypanosomal activity, T. cruzi on MRC-5 cells, β-galactosidase readout
- Format: cell-based, Trypanosoma cruzi
- cond: Trypanosoma cruzi, TULAHUEN, MRC5, 168 h, read-out: T. cruzi IC50

In the examples that follow, each entry is paired with its recorded IC50.
CC(C)=CCC/C(C)=C/CC/C(C)=C/CC/C(C)=C/Cn1cnc2c(N)ncnc21 :: 0.77 µg/mL
C=C1CC[C@H]2C(C)(C)CCC[C@]2(C)[C@H]1CC/C(C)=C/Cn1c[n+](C)c2nc[n-]/c(=N\OC(C)(C)C)c21 :: < 0.12 µg/mL
CC1=C(CC/C(C)=C/CC/C(C)=C/C[n+]2cn(C)c3nc[n-]/c(=N\OCc4ccccc4)c32)C(C)(C)CCC1 :: 0.14 µg/mL
CC(C)=CCC/C(C)=C/CC/C(C)=C/CC/C(C)=C/C[n+]1cn(C)c2nc[n-]/c(=N\OCc3ccccc3)c21 :: 1.4 µg/mL
CC(C)=CCC/C(C)=C/CC/C(C)=C/CC/C(C)=C/Cn1cnc2ncnc(N)c21 :: 2.3 µg/mL

Consider `CO/N=c1\[n-]cnc2c1[n+](C/C=C(\C)CC/C=C(\C)CC/C=C(\C)CCC=C(C)C)cn2C(c1ccccc1)c1ccccc1` . Its measured IC50 is 1.3 µg/mL

Briefly, IC50 measured for `CONc1ncnc2ncn(C/C=C(\C)CC/C=C(\C)CC/C=C(\C)CCC=C(C)C)c12` : 0.28 µg/mL

According to the records, this compound `CC1=C(CC/C(C)=C/CC/C(C)=C/C[n+]2cn(C)c3nc[n-]/c(=N\OC(C)(C)C)c32)C(C)(C)CCC1` displays IC50 of < 0.12 µg/mL

Per the record, `CC(C)=CCC/C(C)=C/CC/C(C)=C/CC/C(C)=C/Cn1cnc2ncnc(NOCc3ccccc3)c21` has IC50 of 1.5 µg/mL

----------
- protocol-text: Cytotoxicity assay, resazurin
- Assay type: cell-based
- cond: human, MRC-5 SV2 cells (human fetal lung fibroblasts)
log10(IC50 at 72 h) for assorted compounds
Values below are the log10 of the recorded IC50 at 72 h, with µg/mL as the unit.

Entry under test: `CO/N=c1\[n-]cnc2c1[n+](C/C=C(\C)CC/C=C(\C)CC/C=C(\C)CCC=C(C)C)cn2C(c1ccccc1)c1ccccc1` . Its log10(IC50 at 72 h) was -0.04

Sample `CC(C)=CCC/C(C)=C/CC/C(C)=C/CC/C(C)=C/Cn1cnc2c1c(=N)ncn2C` ; log10(IC50 at 72 h) observed: 0.36

# log10(IC50 at 72 h) (compound: `CC(C)=CCC/C(C)=C/CC/C(C)=C/CC/C(C)=C/Cn1c[n+](C)c2ccccc21` ) is 0.30

Note to self: log10(IC50 at 72 h) recorded for `CC(C)=CCC/C(C)=C/CC/C(C)=C/CC/C(C)=C/Cn1cc[n+](C)c1` was 0.88

// `CO/N=c1\[n-]cnc2c1n(C/C=C(\C)CCC=C(C)C)c[n+]2C` : log10(IC50 at 72 h) value = -0.07

----------
- protocol-text: Cytotoxicity assay, resazurin
- Type: cell-based
- cond: human, MRC-5 SV2 cells (human fetal lung fibroblasts)
Readings of IC50 at 72 h for the listed molecules
Just the number in µg/mL, nothing appended.

Solved cases (5 shown):
CC(C)=CCC/C(C)=C/CC/C(C)=C/CC/C(C)=C/Cn1cnc2ncnc(N)c21 :: 2.6
CC(C)=CCC/C(C)=C/CC/C(C)=C/CC/C(C)=C/C[n+]1cnc2c(ncn2C)c1N :: 16
CO/N=c1\[n-]cnc2c1[n+](C/C=C(\C)CC/C=C(\C)CCC=C(C)C)cn2C :: 0.35
C=C1CC[C@H]2C(C)(C)CCC[C@]2(C)[C@H]1CC/C(C)=C/Cn1c[n+](C)c2nc[n-]/c(=N\OC)c21 :: 4.5
CC(C)=CCC/C(C)=C\CC/C(C)=C/C[n+]1cn(C)c2nc[n-]/c(=N\OCc3ccccc3)c21 :: 0.31

Form: molecule = `CONc1ncnc2ncn(C/C=C(\C)CC/C=C(\C)CC/C=C(\C)CCC=C(C)C)c12` ; IC50 at 72 h = 2.1

Data point: `CC1=C(CC/C(C)=C/CC/C(C)=C/C[n+]2cn(C)c3nc[n-]/c(=N\OC(C)(C)C)c32)C(C)(C)CCC1` ; IC50 at 72 h = 0.48

----------
- Test system: Leishmania infantum amastigotes (MHOM/ET 67)
- protocol-text: Antileishmanial activity, amastigotes in primary peritoneal mouse macrophages
- Format: cell-based
- cond: Leishmania infantum, Macrophage; intracellular amastigotes, 120 h; TDR hit criterion <0.5 μg/mL; read-out: L. infantum IC50
Let's look at some molecules and their measured IC50.
Field format: number, assumed µg/mL, no unit text.

Example results:
CO/N=c1\[n-]cnc2c1[n+](C/C=C(\C)CC/C=C(\C)CC/C=C(\C)CCC=C(C)C)cn2C(c1ccccc1)c1ccccc1 :: 1.2
CC(C)=CCC/C(C)=C/CC/C(C)=C/CC/C(C)=C/Cn1cnc2c1c(=N)ncn2C :: 13
CO/N=c1\[n-]cnc2c1[n+](C/C=C(\C)CC/C=C(\C)CCC=C(C)C)cn2C :: 0.77

Reported IC50 ( `CC1=C(CC/C(C)=C/CC/C(C)=C/C[n+]2cn(C)c3nc[n-]/c(=N\OCc4ccccc4)c32)C(C)(C)CCC1` ) = 12

Measured IC50, `CC(C)=CCC/C(C)=C/CC/C(C)=C/CC/C(C)=C/C[n+]1cn(C)c2nc[n-]/c(=N\OC(C)(C)C)c21` : 0.27

What the record says about `C=C1CC[C@H]2C(C)(C)CCC[C@]2(C)[C@H]1CC/C(C)=C/Cn1c[n+](C)c2nc[n-]/c(=N\OC(C)(C)C)c21` : IC50 is 4

For `CO/N=c1\[n-]cnc2c1[n+](C/C=C(\C)CC/C=C(\C)CC/C=C(\C)CCC=C(C)C)cn2C` the molecule record lists IC50 as 0.093

IC50 measured on `C=C1CC[C@H]2C(C)(C)CCC[C@]2(C)[C@H]1CC/C(C)=C/Cn1c[n+](C)c2nc[n-]/c(=N\OC)c21` = 0.63

Lab note: `C=C1CC[C@@H]2C(C)(C)CCC[C@@]2(C)[C@@H]1CC/C(C)=C/Cn1c[n+](C)c2ncnc(N)c21` gave IC50 of 1.5

Sure, the documented IC50 for `CC(C)=CCC/C(C)=C/CC/C(C)=C/CC/C(C)=C/C[n+]1cn(C)c2nc[n-]/c(=N\OCc3ccccc3)c21` is 5.4

`CC1=C(CC/C(C)=C/CC/C(C)=C/C[n+]2cn(C)c3nc[n-]/c(=N\OC(C)(C)C)c32)C(C)(C)CCC1` has a reported IC50 of 0.99

So for CCCCCCCCCCCCCCCCOP(=O)([O-])OCC[N+](C)(C)C [Miltefosine, reference compound] , the logged IC50 turned out to be 0.24

According to the records, this molecule `CO/N=c1\[n-]cnc2c1[n+](C/C=C(\C)CC/C=C(\C)CC/C=C(\C)CCC=C(C)C)cn2CCC#N` displays IC50 of 12

molecule CO/N=c1\[n-]cnc2c1[n+](C/C=C(\C)CCCC(C)CCCC(C)CCCC(C)C)cn2C (centres unmarked) , IC50 observed: 0.23

Lab note: measured IC50 of `CC(C)=CCC/C(C)=C/CC/C(C)=C/CC/C(C)=C/Cn1c[n+](C)c2ccccc21` was 2.5

`CO/N=c1\[n-]cnc2c1n(C/C=C(\C)CCC=C(C)C)c[n+]2C` has a reported IC50 of 7.5

Entry `CC(C)=CCC/C(C)=C\CC/C(C)=C/C[n+]1cn(C)c2nc[n-]/c(=N\OCc3ccccc3)c21` — recorded IC50 = 0.99

Just so you know, measured IC50 for `CC(C)=CCC/C(C)=C/CC/C(C)=C/CC/C(C)=C/C[n+]1cn(CCC#N)c2nc[n-]/c(=N\OCc3ccccc3)c21` came out at 18

----------
- System: T. cruzi Tulahuen CL2 strain (nifurtimox-sensitive)
- protocol-text: Antitrypanosomal activity, T. cruzi on MRC-5 cells, β-galactosidase readout
- Assay type: cell-based, Trypanosoma cruzi
- cond: Trypanosoma cruzi, TULAHUEN, MRC5, 168 h, read-out: T. cruzi IC50
Label key: TRUE means IC50 under 3 µg/mL; FALSE means IC50 of 3 µg/mL or more.

Recorded results for 5 molecules are shown here.
CC(C)=CCC/C(C)=C/CC/C(C)=C/CC/C(C)=C/C[n+]1cnc2c(ncn2C)c1N [Compound 7] :: FALSE
CC(C)=CCC/C(C)=C\CC/C(C)=C/C[n+]1cn(C)c2ncnc(N)c21 [Compound 2a] :: TRUE
C/C(=C\C[n+]1cn(C)c2ncnc(N)c21)CCCC(C)CCCC(C)CCCC(C)C (centres unmarked) [Compound 2b] :: TRUE
CO/N=c1\[n-]cnc2c1[n+](C/C=C(\C)CC/C=C(\C)CC/C=C(\C)CCC=C(C)C)cn2C [Compound 1d] :: TRUE
CO/N=c1\[n-]cnc2c1[n+](C/C=C(\C)CC/C=C(\C)CCC=C(C)C)cn2C [Compound 1b] :: TRUE

(Q) Is IC50 of CO/N=c1\[n-]cnc2c1n(C/C=C(\C)CCC=C(C)C)c[n+]2C [Compound 1a] strictly below 3 µg/mL?
(A) TRUE

(Q) Here's an entry: C=C1CC[C@H]2C(C)(C)CCC[C@]2(C)[C@H]1CC/C(C)=C/Cn1c[n+](C)c2nc[n-]/c(=N\OC)c21 [Compound 1n] . Is its IC50 below 3 µg/mL?
(A) TRUE

(Q) Please determine if CC(C)=CCC/C(C)=C/CC/C(C)=C/CC/C(C)=C/Cn1cc[n+](C)c1 [Compound 5] is below 3 µg/mL in terms of IC50.
(A) TRUE
